Assay: viability gain of MRP-1-high H69AR cells under doxorubicin, pilot screen, MRP-1 activator project, CellTiter-Glo, duplicate (AID 807);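 note: compound pretreatment 18-22 h then 72 h combined with doxorubicin; 0% = doxorubicin alone and 100% = vehicle without doxorubicin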
Conditions: H69AR viability with doxorubicin, CellTiter-Glo luminescence; at 10 µM; stronger effect = higher value
endpoint_name: viability increase (%)
Could you give me the number in %? Just the number is fine.

Please review the following examples before continuing.
Nc1nc2n(n1)C(c1ccccc1)CC(c1ccc(F)cc1)N2 (stereo not given)	-0.53
COc1ccc(S(=O)(=O)N2CCCC2C(=O)Nc2ccc(C(C)=O)cc2)cc1 (stereo not given)	-0.66
Cn1c(C(=O)N2CCN(Cc3ccccc3)CC2)cc2c(=O)n(C)c3ccccc3c21	-4.21
CC(NS(=O)(=O)c1ccc(Br)cc1)C(c1cccs1)N1CCN(C)CC1 (stereo not given)	-2.85

Qu. Look up viability increase: C=CCNC(=O)C1CCN(S(=O)(=O)c2ccc(Br)cc2)CC1
Ans. -2.46

Qu. // query: O=S(=O)(NCCCN1CCN(c2ccccc2F)CC1)c1cccc2cccnc12
Ans. -2.92

Qu. // query: O=c1[nH]cnc2c1sc(=S)n2-c1ccccc1
Ans. -0.17

Hey, just so you know, these numbers are from PubChem BioAssay.
